tested on: SARS-CoV; test: Inhibitory activity against SARS coronavirus 6109 replication in vero (CCL81) cells; type: functional, organism-based; settings: Severe acute respiratory syndrome-related coronavirus
Square brackets hold non-standard residues; d marks the D form. Peptide text beside a SMILES is read from it. * marks the point of attachment. ξ: configuration not given here. Ile(3ξ) = CCC(C)[C@H](N)C(=O)O; ξE = NC(CCC(=O)O)C(=O)O; Cbz = O=C(OCc1ccccc1)*; CH2F = FC*
valueKind: pEC50
Just so you know, pEC50 here is -log10 of the concentration in molar units; reply with that number alone.

Reference set, count: 2
compound	testValue
CCC(C)[C@H](NC(=O)OCc1ccccc1)C(=O)NC(CCC(=O)N(C)C)C(=O)CF (stereo partly specified) (Cbz-[Ile(3ξ)]-[ξE](NMe2)-CH2F)	5.28
CC(C)[C@H](NC(=O)OCc1ccccc1)C(=O)NC(CCC(=O)N(C)C)C(=O)CF (stereo partly drawn) (Cbz-Val-[ξE](NMe2)-CH2F)	5.18

As a next step, examine the compound that follows.
Prompt: Look up and report pEC50, with SARS-CoV as system, for CC(C)C[C@H](NC(=O)OCc1ccccc1)C(=O)NC(CCC(=O)N(C)C)C(=O)CF (stereo partly drawn) (Cbz-Leu-[ξE](NMe2)-CH2F)
Response: 5.60
